B1: HDV Ribozyme (parent)
chain: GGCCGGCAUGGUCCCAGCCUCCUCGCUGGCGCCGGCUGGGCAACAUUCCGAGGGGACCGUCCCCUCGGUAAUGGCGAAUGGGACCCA

variants of: B1; assay: self-cleavage, relative activity (ratio to wild type); higher = more cleavage; co-transcriptional
Classify by measured self-cleavage: MET if it is equal to or exceeds 0.3, NOT MET if it is smaller.

{"MUTATION_ID": "C4A G74U", "CAT": "NOT MET"}
{"MUTATION_ID": "C26U A45G", "CAT": "MET"}
{"MUTATION_ID": "A51G A77G", "CAT": "MET"}
{"MUTATION_ID": "A42G G76C", "CAT": "MET"}
{"MUTATION_ID": "G31A G82A", "CAT": "NOT MET"}
{"MUTATION_ID": "C22A C26A", "CAT": "NOT MET"}
{"MUTATION_ID": "G11A G52U", "CAT": "MET"}
{"MUTATION_ID": "G10C C22U", "CAT": "MET"}
{"MUTATION_ID": "A8C C57A", "CAT": "MET"}
{"MUTATION_ID": "G54A C66A", "CAT": "MET"}
{"MUTATION_ID": "G52C A70C", "CAT": "MET"}
{"MUTATION_ID": "G11C C13U", "CAT": "NOT MET"}
{"MUTATION_ID": "C66A G74A", "CAT": "MET"}
{"MUTATION_ID": "G34A G53C", "CAT": "NOT MET"}
{"MUTATION_ID": "C14U U60G", "CAT": "MET"}
{"MUTATION_ID": "A8U", "CAT": "MET"}
{"MUTATION_ID": "G6U A77U", "CAT": "NOT MET"}
{"MUTATION_ID": "G34U A51C", "CAT": "NOT MET"}
{"MUTATION_ID": "C14U G31U", "CAT": "MET"}
{"MUTATION_ID": "G1A U47A", "CAT": "NOT MET"}
{"MUTATION_ID": "A42C G73U", "CAT": "NOT MET"}
{"MUTATION_ID": "C41A A87U", "CAT": "MET"}
{"MUTATION_ID": "U12A U20A", "CAT": "NOT MET"}
{"MUTATION_ID": "C4G G55U", "CAT": "MET"}
{"MUTATION_ID": "C33A A56G", "CAT": "MET"}
{"MUTATION_ID": "U27C C41G", "CAT": "NOT MET"}
{"MUTATION_ID": "G38C C75A", "CAT": "NOT MET"}
{"MUTATION_ID": "G1C U72G", "CAT": "NOT MET"}
{"MUTATION_ID": "C21A G76A", "CAT": "NOT MET"}
{"MUTATION_ID": "A45G G59U", "CAT": "MET"}
{"MUTATION_ID": "G10C C21G", "CAT": "NOT MET"}
{"MUTATION_ID": "G17C G81U", "CAT": "NOT MET"}
{"MUTATION_ID": "C3G G25A", "CAT": "NOT MET"}
{"MUTATION_ID": "A8G A71C", "CAT": "MET"}
{"MUTATION_ID": "G2C G17A", "CAT": "NOT MET"}
{"MUTATION_ID": "A43C G52C", "CAT": "MET"}
{"MUTATION_ID": "C18U G28U", "CAT": "NOT MET"}
{"MUTATION_ID": "G2U C63A", "CAT": "NOT MET"}
{"MUTATION_ID": "C32A U72C", "CAT": "NOT MET"}
{"MUTATION_ID": "G11C C33A", "CAT": "NOT MET"}
{"MUTATION_ID": "C15U C85G", "CAT": "MET"}
{"MUTATION_ID": "C7G G68U", "CAT": "NOT MET"}
{"MUTATION_ID": "U9C G38C", "CAT": "NOT MET"}
{"MUTATION_ID": "G54U G76A", "CAT": "MET"}
{"MUTATION_ID": "C4G G6A", "CAT": "NOT MET"}
